Target: T1, Fusion protein of extracellular domain of human TIGIT and His-tag (human TIGIT ECD-his) (human)
T1 chain: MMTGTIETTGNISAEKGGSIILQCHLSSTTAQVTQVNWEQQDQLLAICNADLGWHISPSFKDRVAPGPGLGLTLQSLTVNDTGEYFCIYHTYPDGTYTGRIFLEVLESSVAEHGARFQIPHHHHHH
Experiment: BIAcore
Consider the following binders; for each one, report its koff.
One number for each entry, in s⁻¹.

BINDER	koff / s⁻¹
TIGIT-006-H5L1 (antibody, V domains shown, Humanized anti-TIGIT antibody) VH: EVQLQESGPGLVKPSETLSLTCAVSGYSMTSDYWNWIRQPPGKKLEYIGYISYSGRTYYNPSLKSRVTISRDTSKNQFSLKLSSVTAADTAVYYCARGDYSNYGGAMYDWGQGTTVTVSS VL: DIVMTQTPLSLSVTPGQPASISCRASQGVSTTIAWYLQKPGQSPQLLIYSASYRYTGVPDRFSGSGSGTDFTLKISRVEAEDVGVYYCQQYYSSPFTFGGGTKVEIK	0.000163

Please give koff for each item listed below.
1. TIGIT-CHI-070 (antibody, V domains shown, Human-mouse chimeric antibody) VH: QVQLQQPGTELVKPGASVKLSCRASGYTFTNYYMHWVKQRPGRGLEWIGRIDPDSGGSKYNEKFKSKATLTVDKLSSTAYMQLSSLTSEDSAVYYCAREGHYGFYSDYWGQGTTLTVSS VL: DIQMTQSPASLSASVGETVTITCRVSENIYSYLAWYQQKQGKSPQLLVYNAKTLAEGVPSRFSGSGSGTQFSLKINSLQPEDFGNYYCQHHYGNPLTFGAGTKLDLK
2. TIGIT-006-H1L3 (antibody, V domains shown, Humanized anti-TIGIT antibody) VH: EVQLQESGPGLVKPSETLSLTCAVSGYSITSDYWNWIRQPPGKGLEWIGYISYSGRTYYNPSLKSRVTISRDTSKNQFSLKLSSVTAADTAVYYCARGDYSNYGGAMYDWGQGTTVTVSS VL: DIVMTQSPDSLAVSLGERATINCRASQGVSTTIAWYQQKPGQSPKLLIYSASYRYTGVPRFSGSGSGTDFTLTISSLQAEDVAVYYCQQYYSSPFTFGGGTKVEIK

Result block:
[0.000145, 0.000384]
